Recorded values, source patent US20130164747A1.

# Tested on: H23siCt cells
# assayExplanation: MTS assay, siRNA control cell line
# Type: cell-based
# statedConditions: RRM1 no change, continuous exposure 72 or 96 hr, read-out: IC50 +/− SD
What pIC50 was measured for each of the following?
// pIC50 is dimensionless: -log10 of concentration (M)

# input Need pIC50, item N.N.[Cl][Pt][Cl] [Cisplatin, cisplatin]
# output 6.00

# input Need pIC50, item N.N.O=C([O-])C1(C(=O)[O-])CCC1.[Pt+2] [Carboplatin, carboplatin]
# output 4.89

# input Need pIC50, item CC(=O)O[C@@]12CO[C@@H]1C[C@H](O)[C@@]1(C)C(=O)[C@H](O)C3=C(C)[C@@H](OC(=O)[C@H](O)[C@@H](NC(=O)OC(C)(C)C)c4ccccc4)C[C@@](O)([C@@H](OC(=O)c4ccccc4)[C@H]21)C3(C)C [Docetaxel, docetaxel]
# output 5.60

# input Need pIC50, item Nc1ccn([C@@H]2O[C@H](CO)[C@@H](O)C2(F)F)c(=O)n1 [Gemcitabine, gemcitabine]
# output 5.99
